Recorded values, source ChEMBL document CHEMBL5236552.

target or system: UniProt P08684
Sequence (P08684 whole entry): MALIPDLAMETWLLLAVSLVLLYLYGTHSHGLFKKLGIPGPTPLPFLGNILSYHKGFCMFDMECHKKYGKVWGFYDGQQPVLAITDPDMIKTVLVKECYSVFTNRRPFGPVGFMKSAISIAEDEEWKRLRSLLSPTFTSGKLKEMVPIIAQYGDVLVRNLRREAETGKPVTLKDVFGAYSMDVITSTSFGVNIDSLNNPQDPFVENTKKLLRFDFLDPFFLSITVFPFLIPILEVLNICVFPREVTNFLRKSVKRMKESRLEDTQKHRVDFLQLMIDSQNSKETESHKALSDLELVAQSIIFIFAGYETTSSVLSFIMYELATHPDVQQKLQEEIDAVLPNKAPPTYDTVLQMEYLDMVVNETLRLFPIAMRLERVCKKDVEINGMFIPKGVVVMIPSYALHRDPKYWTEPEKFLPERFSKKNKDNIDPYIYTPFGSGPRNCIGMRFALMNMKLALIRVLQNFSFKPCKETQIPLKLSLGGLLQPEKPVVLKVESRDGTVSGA
test: Inhibition of CYP3A4 (unknown origin) at 10 uM using testosterone as substrate incubated for 60 mins by LC-MS/MS analysis relative to control
Assay type: ADME
particulars: probe testosterone
property name: inhibition at 1 h, 10 µM (%)

Check out these entries, answers already filled in.
>  <compound structure string>
Cc1ccc(-c2ccncc2C)c(C(=O)N2CCC(O)(Cc3ccccc3)CC2)c1

>  <target or system>
UniProt P08684

>  <scale unit>
%

>  <inhibition at 1 h, 10 µM>
91

$$$$
>  <compound structure string>
Cc1ccc(-c2ccncc2F)c(C(=O)N2CCC(O)(Cc3ccccc3)CC2)c1

>  <target or system>
UniProt P08684

>  <scale unit>
%

>  <inhibition at 1 h, 10 µM>
77

$$$$
>  <compound structure string>
Cc1cccc(C(=O)N2CCC(O)(Cc3ccccc3)CC2)c1-c1ccncc1

>  <target or system>
UniProt P08684

>  <scale unit>
%

>  <inhibition at 1 h, 10 µM>
77

$$$$

(1) O=C(c1cc(Cl)ccc1-c1ccncc1)N1CCC(O)(Cc2ccccc2)CC1
(2) O=C(c1ccccc1-c1ccncc1)N1CCC(O)(Cc2ccccn2)CC1
(3) O=C(c1ccccc1-c1ccncn1)N1CCC(O)(Cc2ccccn2)CC1
With regard to inhibition at 1 h, 10 µM, arrange the entries in ascending order, please. Please respond with the labels ordered as the question requires. 3, 2, 1

* * *

target or system: Cytochrome P450 2C8 (Homo sapiens)
Sequence (P10632 whole entry): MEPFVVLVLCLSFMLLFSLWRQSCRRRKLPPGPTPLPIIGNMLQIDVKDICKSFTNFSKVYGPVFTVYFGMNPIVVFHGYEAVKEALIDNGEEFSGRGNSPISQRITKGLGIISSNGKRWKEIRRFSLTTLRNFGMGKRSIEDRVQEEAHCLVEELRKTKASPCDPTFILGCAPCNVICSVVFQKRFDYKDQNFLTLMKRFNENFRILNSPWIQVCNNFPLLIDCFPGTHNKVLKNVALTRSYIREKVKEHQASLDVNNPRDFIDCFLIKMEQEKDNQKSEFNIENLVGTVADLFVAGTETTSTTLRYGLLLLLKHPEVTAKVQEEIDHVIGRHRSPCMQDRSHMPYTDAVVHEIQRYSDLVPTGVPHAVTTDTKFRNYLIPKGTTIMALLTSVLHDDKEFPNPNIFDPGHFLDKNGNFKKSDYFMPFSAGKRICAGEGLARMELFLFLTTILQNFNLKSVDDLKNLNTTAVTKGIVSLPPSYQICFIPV
property name: IC50 (µM)
# number only, unit µM dropped from output

I am curious: what IC50 value has been reported for O=C(c1cccnc1-c1ccncc1)N1CCC(O)(Cc2ccccc2)CC1 [SOTICLESTAT] ? 62

* * *

target or system: Cytochrome P450 2D6 (Homo sapiens, UniProt P10635)
Sequence (P10635 whole entry): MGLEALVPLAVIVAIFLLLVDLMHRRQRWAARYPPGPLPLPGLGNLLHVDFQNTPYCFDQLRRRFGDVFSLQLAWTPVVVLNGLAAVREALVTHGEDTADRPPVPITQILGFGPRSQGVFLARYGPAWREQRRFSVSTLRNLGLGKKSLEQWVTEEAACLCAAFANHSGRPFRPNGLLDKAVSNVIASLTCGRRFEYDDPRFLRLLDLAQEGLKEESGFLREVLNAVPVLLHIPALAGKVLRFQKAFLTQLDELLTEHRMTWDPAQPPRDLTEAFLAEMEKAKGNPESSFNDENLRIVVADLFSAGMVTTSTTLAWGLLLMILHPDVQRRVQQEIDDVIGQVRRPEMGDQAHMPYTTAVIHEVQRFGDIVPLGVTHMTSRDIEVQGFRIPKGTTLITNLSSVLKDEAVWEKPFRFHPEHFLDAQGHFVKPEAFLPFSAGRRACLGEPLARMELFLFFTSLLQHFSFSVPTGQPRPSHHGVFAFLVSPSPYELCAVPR
test: Inhibition of CYP2D6 (unknown origin) using bufuralol as substrate incubated for 10 to 20 mins in presence of NADPH-generating system by LC-MS/MS analysis
property name: IC50

I am curious: what IC50 value has been reported for O=C(c1cccnc1-c1ccncc1)N1CCC(O)(Cc2ccccc2)CC1 ? > 100 µM

* * *

target or system: Cholesterol 24-hydroxylase (Homo sapiens, UniProt Q9Y6A2)
Sequence (Q9Y6A2 whole entry): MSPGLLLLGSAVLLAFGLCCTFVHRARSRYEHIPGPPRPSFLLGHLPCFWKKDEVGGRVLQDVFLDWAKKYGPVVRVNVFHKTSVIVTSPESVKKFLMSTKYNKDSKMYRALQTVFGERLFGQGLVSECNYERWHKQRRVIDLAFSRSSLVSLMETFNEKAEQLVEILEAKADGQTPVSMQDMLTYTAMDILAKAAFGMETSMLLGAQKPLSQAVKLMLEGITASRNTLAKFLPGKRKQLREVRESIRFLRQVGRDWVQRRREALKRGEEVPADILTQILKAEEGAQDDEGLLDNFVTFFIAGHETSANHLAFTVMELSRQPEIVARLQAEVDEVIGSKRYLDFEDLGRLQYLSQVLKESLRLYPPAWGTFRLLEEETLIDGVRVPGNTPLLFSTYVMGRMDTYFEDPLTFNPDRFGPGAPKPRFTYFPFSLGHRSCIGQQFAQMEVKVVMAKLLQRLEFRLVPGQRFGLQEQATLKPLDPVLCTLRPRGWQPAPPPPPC
property name: IC50 (nM)

>  <compound>
O=C(c1cccnc1-c1ccncn1)N1CCC(O)(Cc2ccccc2)CC1

>  <IC50 (nM)>
19

$$$$
>  <compound>
Cc1ccc(-c2ccncc2C)c(C(=O)N2CCC(O)(Cc3ccccc3)CC2)c1

>  <IC50 (nM)>
4.9

$$$$
>  <compound>
O=C(c1cccnc1-c1ccncc1)N1CCC(O)(Cc2ccccn2)CC1

>  <IC50 (nM)>
100

$$$$
>  <compound>
O=C(c1ccncc1)N1N=C(c2ccccc2)CC1(O)C(F)(F)F (stereo unspecified)

>  <IC50 (nM)>
350

$$$$
>  <compound>
O=C(c1cccnc1-c1ccncc1)N1CCC(O)(Cc2ccccc2)CC1 [SOTICLESTAT]

>  <IC50 (nM)>
7.4

$$$$

(I) O=C(c1cc(F)ccc1-c1ccncc1)N1CCC(O)(Cc2ccccc2)CC1
(II) Cc1ccc(-c2ccncc2)c(C(=O)N2CCC(O)(Cc3ccccc3)CC2)c1
(III) Cc1ccc(-c2ccncc2)c(C(=O)N2CCN(Cc3ccccc3)CC2)c1
(IV) CCC1(O)CCN(C(=O)c2cc(C)ccc2-c2ccncc2)CC1
Order field: IC50 | Direction: descending (largest first) Please respond with the labels ordered as the question requires. IV, III, I, II
